Tested on: Amaranthus retroflexus
Experiment: Post-emergence herbicidal efficacy at 320 g/ha, AMARE
Format: in vivo
Conditions: rated visually after about 3 weeks vs untreated controls, 100% = plants have died
# Post-emergence efficacy at 320 g/ha against AMARE in % listing for each entry below
Please respond with the number in % and leave the unit unwritten.

molecule	reading
N#Cc1cc(Cl)cnc1Nc1cccc(C#N)c1-n1cc(C(F)(F)F)cn1 [Example 1-55]	100
COCc1cnn(-c2c(C#N)cccc2Nc2ncc(Cl)cn2)c1 [Example 1-68]	100
N#Cc1cccc(Nc2ncc(F)cn2)c1-c1ccc(F)c(F)c1 [Example 1-30]	100

Which Post-emergence efficacy at 320 g/ha against AMARE in % is listed for FC(F)(F)CCCSc1ccccc1Nc1ncc(Cl)cn1 [Example 1-4] ?
90

Let us now turn to Cc1cccc(Nc2ncc(Cl)cn2)c1-n1cc(C(F)(F)F)cn1 [Example 1-49]
90

Let us now turn to O=S(=O)(CCCC(F)(F)F)Oc1c(F)cccc1Nc1ncc(Cl)cn1 [Example 1-14]
90

Let us now turn to Fc1cccc(Nc2ncc(Cl)cn2)c1-n1cc(C(F)(F)F)cn1 [Example 1-47]
90

Let us now turn to N#Cc1c(Cl)ccc(Nc2ncc(Cl)cn2)c1-n1cc(C(F)(F)F)cn1 [Example 1-43]
100

Let us now turn to FC(F)(F)CCCc1ccccc1Nc1ccc(Cl)cn1 [Example 1-70]
100
